# Tested on: Staphylococcus aureus
# experimental-details: Minimum inhibitory concentration against Staphylococcus aureus UC6685
# Assay type: functional
Known MIC of a selection of molecules
Value expressed in µg/mL; do not type the unit.

The cases that follow already have their MIC on record.
>>> df
                              smiles_string  value_observed
0  CC(=O)NC[C@H]1CN(c2ccc(N3CCN(c4cnccn4)CC3)c(F)c2)C(=O)O1               1
1  CC(=O)NC[C@H]1CN(c2ccc(N3CCN(c4ccnc(C)c4)CC3)c(F)c2)C(=O)O1               2
2  CC(=O)NC[C@H]1CN(c2ccc(N3CCN(c4cc(N)nc(N)n4)CC3)c(F)c2)C(=O)O1               4
3  CC(=O)NC[C@H]1CN(c2ccc(N3CCN(c4ccnc5ccccc45)CC3)c(F)c2)C(=O)O1               2
4  CC(=O)NC[C@H]1CN(c2ccc(N3CCN(c4ccc(C)nn4)CC3)c(F)c2)C(=O)O1               2

Any idea what MIC came out for `CC(=O)NC[C@H]1CN(c2ccc(N3CCN(c4ncccc4C#N)CC3)c(F)c2)C(=O)O1` on Staphylococcus aureus? 2

// next record `CC(=O)NC[C@H]1CN(c2ccc(N3CCN(c4cc(C#N)ccn4)CC3)c(F)c2)C(=O)O1` 1

// next record `CC(=O)NC[C@H]1CN(c2ccc(N3CCN(C(=O)CO)CC3)c(F)c2)C(=O)O1` 1

// next record `CC(=O)NC[C@H]1CN(c2ccc(N3CCN(c4nc(F)c(F)cc4F)CC3)c(F)c2)C(=O)O1` 2

// next record `CC(=O)NC[C@H]1CN(c2ccc(N3CCN(c4cccc(C)n4)CC3)c(F)c2)C(=O)O1` 2

// next record `CC(=O)NC[C@H]1CN(c2ccc(N3CCN(c4ncccn4)CC3)c(F)c2)C(=O)O1` 2

---

# System: Staphylococcus epidermidis
# experimental-details: Minimum inhibitory concentration against Staphylococcus epidermis UC12084
# Assay type: functional
result-type: MIC

                              smiles_string  value_observed
0  CC(=O)NC[C@H]1CN(c2ccc(N3CCN(c4c(Cl)c(Cl)nc(Cl)c4Cl)CC3)c(F)c2)C(=O)O1      > 16 µg/mL
1  CC(=O)NC[C@H]1CN(c2ccc(N3CCN(c4ccnc5ccccc45)CC3)c(F)c2)C(=O)O1       0.5 µg/mL
2  CC(=O)NC[C@H]1CN(c2ccc(N3CCN(c4nnc(Cl)c(C)c4C)CC3)c(F)c2)C(=O)O1         4 µg/mL
3  CC(=O)NC[C@H]1CN(c2ccc(N3CCN(c4ccc5nc(C)c(C(C)=O)n5n4)CC3)c(F)c2)C(=O)O1         1 µg/mL
4  CC(=O)NC[C@H]1CN(c2ccc(N3CCN(c4cncc(Cl)n4)CC3)c(F)c2)C(=O)O1       0.5 µg/mL
5  CC(=O)NC[C@H]1CN(c2ccc(N3CCN(c4cc(NC(C)=O)c(Cl)nn4)CC3)c(F)c2)C(=O)O1        16 µg/mL

Would you mind telling me what MIC value was observed for `CC(=O)NC[C@H]1CN(c2ccc(N3CCOCC3)c(F)c2)C(=O)O1` ? 1 µg/mL

// next record `CC(=O)NC[C@H]1CN(c2ccc(N3CCN(c4cccc(Br)n4)CC3)c(F)c2)C(=O)O1` 0.5 µg/mL

// next record `CC(=O)NC[C@H]1CN(c2ccc(N3CCN(c4ccccn4)CC3)c(F)c2)C(=O)O1` 1 µg/mL

// next record `CC(=O)NC[C@H]1CN(c2ccc(N3CCN(c4cc(C)c(Cl)nn4)CC3)c(F)c2)C(=O)O1` 2 µg/mL

// next record `CC(=O)NC[C@H]1CN(c2ccc(N3CCN(c4ccc(C)nn4)CC3)c(F)c2)C(=O)O1` 1 µg/mL

---

# System: Caco-2
# experimental-details: permeability assessment across a monolayer of caco-2 cells in presence of GSH in aqueous base.
# Assay type: functional, Homo sapiens
result-type: [A] (µM)
Value expressed in µM; do not type the unit.

The cases that follow already have their [A] on record.
>>> df
                              smiles_string  value_observed
0  CC(=O)NC[C@H]1CN(c2ccc(N3CCN(c4ccnc(Cl)n4)CC3)c(F)c2)C(=O)O1              17
1  CC(=O)NC[C@H]1CN(c2ccc(N3CCN(c4ccncn4)CC3)c(F)c2)C(=O)O1              40
2  CC(=O)NC[C@H]1CN(c2ccc(N3CCN(c4cccc(Br)n4)CC3)c(F)c2)C(=O)O1             2.6
3  CC(=O)NC[C@H]1CN(c2ccc(N3CCN(c4cccnn4)CC3)c(F)c2)C(=O)O1              36

# ---- query compound ----
Would you mind telling me what [A] value was observed for `CC(=O)NC[C@H]1CN(c2ccc(N3CCN(c4ccccn4)CC3)c(F)c2)C(=O)O1` ? 37

---

Known MIC of a selection of molecules
# Test system: Enterococcus faecalis
# experimental-details: Minimum inhibitory concentration against Enterococcus faecalis UC9217
# Format: functional

In [3]: df
Out[3]:
                              smiles_string  value_observed
0  CC(=O)NC[C@H]1CN(c2ccc(N3CCN(c4cnccn4)CC3)c(F)c2)C(=O)O1         2 µg/mL
1  CC(=O)NC[C@H]1CN(c2ccc(N3CCN(c4nc(N)nc(N)n4)CC3)c(F)c2)C(=O)O1         2 µg/mL
2  CC(=O)NC[C@H]1CN(c2ccc(N3CCN(C(=O)CO)CC3)c(F)c2)C(=O)O1         2 µg/mL
3  CC(=O)NC[C@H]1CN(c2ccc(N3CCN(c4ccnc(C)c4)CC3)c(F)c2)C(=O)O1         2 µg/mL
4  COc1nc(OC)nc(N2CCN(c3ccc(N4C[C@H](CNC(C)=O)OC4=O)cc3F)CC2)n1         1 µg/mL

Would you mind telling me what MIC value was observed for `CC(=O)NC[C@H]1CN(c2ccc(N3CCN(c4nccc(C(F)(F)F)n4)CC3)c(F)c2)C(=O)O1` ? > 16 µg/mL

// next record `CC(=O)NC[C@H]1CN(c2ccc(N3CCN(c4cc(C)c(Cl)nn4)CC3)c(F)c2)C(=O)O1` 4 µg/mL

// next record `CC(=O)NC[C@H]1CN(c2ccc(N3CCN(c4c(Cl)c(Cl)nc(Cl)c4Cl)CC3)c(F)c2)C(=O)O1` > 16 µg/mL

// next record `CC(=O)NC[C@H]1CN(c2ccc(N3CCN(c4cncc(Cl)n4)CC3)c(F)c2)C(=O)O1` 1 µg/mL

// next record `CC(=O)NC[C@H]1CN(c2ccc(N3CCN(c4cc(C#N)ccn4)CC3)c(F)c2)C(=O)O1` 1 µg/mL

// next record `CC(=O)NC[C@H]1CN(c2ccc(N3CCN(c4ccncn4)CC3)c(F)c2)C(=O)O1` 1 µg/mL

// next record `CC(=O)NC[C@H]1CN(c2ccc(N3CCN(c4nc(C)cc(C)c4C#N)CC3)c(F)c2)C(=O)O1` 4 µg/mL

// next record `CC(=O)NC[C@H]1CN(c2ccc(N3CCN(c4ccncc4)CC3)c(F)c2)C(=O)O1` 2 µg/mL

// next record `CC(=O)NC[C@H]1CN(c2ccc(N3CCN(c4ncccn4)CC3)c(F)c2)C(=O)O1` 2 µg/mL

// next record `CCCOc1nc(Cl)nc(N2CCN(c3ccc(N4C[C@H](CNC(C)=O)OC4=O)cc3F)CC2)n1` 8 µg/mL

// next record `CC(=O)NC[C@H]1CN(c2ccc(N3CCN(c4ccccn4)CC3)c(F)c2)C(=O)O1` 2 µg/mL

// next record `CC(=O)NC[C@H]1CN(c2ccc(N3CCN(c4cnnc(Cl)c4Cl)CC3)c(F)c2)C(=O)O1` 2 µg/mL

---

# Test system: Streptococcus pneumoniae
# experimental-details: Minimum inhibitory concentration Streptococcus pneumoniae UC9912
# Type: functional
result-type: MIC

The cases that follow already have their MIC on record.
>>> print(df.to_string())
                              smiles_string  value_observed
0  CC(=O)NC[C@H]1CN(c2ccc(N3CCN(c4nc(F)c(F)cc4F)CC3)c(F)c2)C(=O)O1       0.5 µg/mL
1  CC(=O)NC[C@H]1CN(c2ccc(N3CCN(c4nc(C)cc(C)c4C#N)CC3)c(F)c2)C(=O)O1         1 µg/mL
2  CC(=O)NC[C@H]1CN(c2ccc(N3CCN(c4nnc(Cl)c(C)c4C)CC3)c(F)c2)C(=O)O1         2 µg/mL

# ---- query compound ----
Would you mind telling me what MIC value was observed for `CC(=O)NC[C@H]1CN(c2ccc(N3CCN(c4c(F)c(F)nc(F)c4F)CC3)c(F)c2)C(=O)O1` ? 2 µg/mL
